Target sequence: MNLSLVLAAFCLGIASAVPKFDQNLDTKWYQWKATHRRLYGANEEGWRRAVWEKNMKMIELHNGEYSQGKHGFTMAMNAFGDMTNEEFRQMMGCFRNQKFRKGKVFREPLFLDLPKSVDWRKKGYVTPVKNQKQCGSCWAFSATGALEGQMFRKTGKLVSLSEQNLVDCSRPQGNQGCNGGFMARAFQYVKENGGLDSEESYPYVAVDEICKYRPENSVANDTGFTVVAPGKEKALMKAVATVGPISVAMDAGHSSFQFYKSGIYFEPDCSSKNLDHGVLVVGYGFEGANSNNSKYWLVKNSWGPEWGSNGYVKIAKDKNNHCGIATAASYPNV
Published IC50 for the protein given by its sequence, assembled from different documents, is shown next.
endpointLabel: IC50 (nM)

1. CCNc1nc(C#N)nc2c1ncn2-c1cc(F)cc(F)c1
2. Cc1cccc(C[C@H](NC(=O)c2cc(C(C)(C)C)nn2C)C(=O)NCC#N)c1
3. N#CCNC(=O)[C@H](Cc1cccc(Cl)c1)NC(=O)c1ccnc2ccccc12
4. CCCC[C@H](NC(=O)OC1C[C@H](C)C[C@@H](C)C1)C(=O)C(=O)N[C@H](C)c1ccccc1 (some centres undefined)
In: Please rank the 4 items above; order by IC50, the highest number leading. Please list each label once, in the requested order.
Out: 1, 3, 4, 2
(1: 70800 nM, 3: 3160 nM, 4: 2000 nM, 2: 398 nM)

A. N#CCNC(=O)[C@H](Cc1cccc(Cl)c1)NC(=O)C1=CCCCC1
B. CC(NC(=O)c1ccc(OCc2ccccn2)c(C(F)(F)F)c1Cl)C(=O)C(=O)Nc1ccn(C)n1 (centres undefined)
C. Cc1nnc(-c2cccc(C[C@H](NC(=O)c3cc(C(C)(C)C)nn3C)C(=O)NCC#N)c2)s1
D. N#CCNC(=O)[C@H](Cc1cccc(-c2nncs2)c1)NC(=O)c1ccccc1
In: Put the compounds in ascending order of IC50. Please list each label once, in the requested order.
Out: C, D, B, A

a. N#CCNC(=O)[C@H](Cc1cccc(-c2ccncc2)c1)NC(=O)c1ccccc1
b. Cc1cc(C(=O)N[C@@H](Cc2cccc(Cl)c2)C(=O)NCC#N)c2cc(C)ccc2c1
In: Which shows the larger IC50 value: a or b ? Pick one and reply with its label.
Out: a
(a: 3160 nM, b: 1000 nM)

a. Cc1cc(C(=O)N[C@@H](Cc2cccc(Cl)c2)C(=O)NCC#N)n(C)n1
b. CCCC[C@H](NC(=O)O[C@H](Cn1ccc(-c2ccc(C(F)(F)F)cc2)n1)C(C)(C)C)C(=O)C(=O)Nc1ccccn1
c. CC(C)(F)C[C@H](N[C@@H](c1ccc(-c2ccc(S(C)(=O)=O)cc2)cc1)C(F)(F)F)C(=O)NC1(C#N)CC1
d. Cn1nc(C(C)(C)C)cc1C(=O)N[C@@H](Cc1cccc(-c2nnc(CO)o2)c1)C(=O)NCC#N
e. CCCC[C@H](NC(=O)O[C@@H]1C(=O)NCC1(C)C)C(=O)C(=O)N[C@H](C)c1ccccc1
In: Put the compounds in ascending order of IC50. Please list each label once, in the requested order.
Out: d, e, c, a, b

----------
Published IC50 for the protein given by its sequence, assembled from different documents, is shown next.
Target chain: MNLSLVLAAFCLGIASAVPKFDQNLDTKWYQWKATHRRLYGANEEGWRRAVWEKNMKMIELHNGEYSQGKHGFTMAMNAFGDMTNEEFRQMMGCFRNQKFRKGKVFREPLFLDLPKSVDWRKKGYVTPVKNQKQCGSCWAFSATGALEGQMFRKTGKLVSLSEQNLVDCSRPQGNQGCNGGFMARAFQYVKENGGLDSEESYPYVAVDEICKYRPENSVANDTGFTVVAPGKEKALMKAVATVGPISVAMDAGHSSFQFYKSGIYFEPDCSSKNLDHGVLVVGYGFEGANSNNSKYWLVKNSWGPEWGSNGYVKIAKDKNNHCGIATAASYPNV
endpointLabel: IC50 (µM)

Use the examples below as a reference point.
inputSmiles	endpointLabel	unitsLabel	reportedResult
COCc1nnc(-c2cccc(C[C@H](NC(=O)c3cc(C(C)(C)C)nn3C)C(=O)NCC#N)c2)o1	IC50	µM	0.002
CCCC[C@H](NC(=O)O[C@H](Cc1nnc(-c2ccc(C(F)(F)F)cc2)o1)C(C)(C)C)C(=O)C(=O)NN1CCOC1=O	IC50	µM	7.1
N#CCNC(=O)[C@H](Cc1cccc(Cl)c1)NC(=O)c1cccc2ccccc12	IC50	µM	3.98

a. CCCC[C@H](NC(=O)O[C@H](Cc1nnc(-c2ccccc2)o1)C(C)C)C(=O)C(=O)N[C@H](C)c1ccccc1
b. Cc1cccc(C(=O)N[C@@H](Cc2cccc(Cl)c2)C(=O)NCC#N)c1
c. CCCC[C@H](NC(=O)O[C@H](Cn1cc(-c2ccc(C(F)(F)F)cc2)cn1)C(C)(C)C)C(=O)C(=O)Nc1ccn[nH]1
d. CCCC[C@H](NC(=O)O[C@H](Cc1nnc(-c2ccc(F)cc2)o1)C(C)(C)C)C(=O)C(=O)N[C@H](C)c1ccccc1
In: Put the molecules in ascending order of IC50. Please list each label once, in the requested order.
Out: c, b, a, d
